- assayed_system: Aminopeptidase N (Plasmodium falciparum FcB1/Columbia)
- Sequence (whole entry): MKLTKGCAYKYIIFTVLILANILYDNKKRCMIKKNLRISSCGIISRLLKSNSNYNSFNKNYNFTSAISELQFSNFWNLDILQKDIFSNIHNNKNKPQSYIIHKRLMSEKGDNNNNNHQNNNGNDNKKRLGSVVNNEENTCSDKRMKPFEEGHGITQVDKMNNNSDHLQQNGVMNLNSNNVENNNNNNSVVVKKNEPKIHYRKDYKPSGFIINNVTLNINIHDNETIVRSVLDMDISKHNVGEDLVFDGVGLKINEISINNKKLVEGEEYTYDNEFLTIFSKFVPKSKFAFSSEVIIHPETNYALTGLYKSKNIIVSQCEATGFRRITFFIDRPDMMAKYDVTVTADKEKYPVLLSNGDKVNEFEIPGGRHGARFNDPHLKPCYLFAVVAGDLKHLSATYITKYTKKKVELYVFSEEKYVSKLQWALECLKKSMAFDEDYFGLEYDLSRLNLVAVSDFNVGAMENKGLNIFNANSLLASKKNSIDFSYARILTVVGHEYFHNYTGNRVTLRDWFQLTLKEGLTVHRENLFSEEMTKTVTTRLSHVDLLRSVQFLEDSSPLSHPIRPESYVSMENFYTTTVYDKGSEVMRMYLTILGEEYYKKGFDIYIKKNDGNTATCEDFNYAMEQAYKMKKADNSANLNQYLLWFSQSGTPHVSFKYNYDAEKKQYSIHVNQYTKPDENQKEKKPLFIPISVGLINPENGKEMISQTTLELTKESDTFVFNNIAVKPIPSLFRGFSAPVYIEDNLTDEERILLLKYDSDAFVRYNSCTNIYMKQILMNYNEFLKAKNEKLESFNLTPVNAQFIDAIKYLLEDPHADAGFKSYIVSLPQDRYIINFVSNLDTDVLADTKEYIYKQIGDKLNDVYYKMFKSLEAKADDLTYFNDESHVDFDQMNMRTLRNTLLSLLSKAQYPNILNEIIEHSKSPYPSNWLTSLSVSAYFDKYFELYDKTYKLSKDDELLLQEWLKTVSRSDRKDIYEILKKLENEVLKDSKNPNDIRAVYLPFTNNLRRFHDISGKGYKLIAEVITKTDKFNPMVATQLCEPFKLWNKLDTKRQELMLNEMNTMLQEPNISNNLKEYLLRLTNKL
- assay_summary: Inhibition of Plasmodium falciparum FcB1 M1 aminopeptidase at 10 uM
observed_property: inhibition (%)

See these solved cases before continuing.
O=C(NO)C(Cc1ccccc1)C(=O)N1CCC2(CCNc3ccccc3O2)CC1 (centres undefined): 7
O=C(CC(=O)NCc1ccc(C(F)(F)F)cc1)NO: 1
O=C(NO)C(Cc1cccc(Oc2ccccc2)c1)C(=O)N1CCC2(CC1)C(=O)NCN2c1ccccc1 (centres undefined): 65

[a] O=C(CC(=O)N1CCN(C(c2ccccc2)c2ccccc2)CC1)NO
[b] Cc1ccccc1CNC(=O)C(Cc1ccccc1)C(=O)NO (centres undefined)
[c] NC(C(=O)NO)C(=O)N(CCc1ccccc1)Cc1ccccc1 (centres undefined)
Rank items: key inhibition, increasing. Please express your ranking as an ordered list of the labels. c, a, b

[A] CC(C)CC(C(=O)NO)C(=O)N(C)Cc1ccccc1 (centres undefined)
[B] NC(C(=O)NO)C(=O)NCCc1ccccn1 (centres undefined)
# returns the entry with the larger inhibition; inputs A and B Your answer should be the label of the entry you select. A
